# Tested on: Glut4
# Run description: Glut4 mRNA expression in adipocytes (real-time PCR)
# Format: cell-based, human
# Conditions used: adipocytes, 250 nM oligomeric compound, day nine post-transfection, relative to control (1.0); Table 16
In the oligonucleotide strings, read from the 5' end, every base follows the letter of its sugar. An asterisk marks phosphorothioate; unmarked linkages are phosphodiester. Other units and linkages are bracketed, terminal groups are in braces. A string of capitals states the bases alone. e = 2'-O-(2-methoxyethyl) (MOE); [5mC] = 5-methylcytosine
Record form. Attribute: Glut4 (mRNA expression). Fill in for each entry.
Give bare numbers.

Substance	System	Glut4 (mRNA expression)
327941 (antisense eA*eA*e[5mC]*e[5mC]*e[5mC]*eA*e[5mC]*e[5mC]*eG*eA*e[5mC]*eA*eG*e[5mC]*eA*eA*eT*eG*eA*eA*eT*eG*eT*eT) [compound 327941]	Glut4	0.44
327890 (antisense eA*eG*e[5mC]*eA*e[5mC]*eA*eA*eA*e[5mC]*eT*eA*e[5mC]*eT*eA*e[5mC]*e[5mC]*eT*e[5mC]*eA) [compound 327890]	Glut4	0.67

Batch request: Glut4 (mRNA expression) for each of the following substances.
1. 327926 (antisense eA*e[5mC]*eT*eA*eT*eG*e[5mC]*eA*eA*e[5mC]*e[5mC]*eT*eA*e[5mC]*eT*eA*e[5mC]*e[5mC]*eT*e[5mC]*eT) [compound 327926]
2. 327922 (antisense eT*e[5mC]*eA*eG*eT*eT*eT*eT*eG*e[5mC]*eA*eT*eG*eG*eA*eT*eT*eT*eG*e[5mC]*eA*e[5mC]*eA) [compound 327922]
3. 327903 (antisense eA*eA*e[5mC]*eT*eA*eT*eA*e[5mC]*eA*eA*e[5mC]*e[5mC]*eT*eA*e[5mC]*eT*eA*e[5mC]*e[5mC]*eT*e[5mC]*eA) [compound 327903]
4. 327901 (antisense eT*eG*eA*eG*e[5mC]*eT*eA*e[5mC]*eA*eG*eT*eG*e[5mC]*eT*eT*e[5mC]*eA*eT*e[5mC]*eT*e[5mC]*eA) [compound 327901]
5. 327930 (antisense eA*e[5mC]*eT*eA*eT*eA*e[5mC]*eA*eA*e[5mC]*e[5mC]*eT*e[5mC]*e[5mC]*eT*eA*e[5mC]*e[5mC]*eT*e[5mC]*eA) [compound 327930]
6. 327893 (antisense eA*eA*e[5mC]*e[5mC]*eA*e[5mC]*eA*e[5mC]*eA*eA*e[5mC]*e[5mC]*eT*eA*e[5mC]*eT*eA*e[5mC]*e[5mC]*eT*e[5mC]*eA) [compound 327893]

A)
1. 1.10
2. 0.43
3. 1.12
4. 0.29
5. 1.01
6. 1.47

Cited source: patent US8178506B2
